# experiment-description: Cytotoxicity against human U87 cells assessed as decrease in cell growth after 72 hrs by resazurin dye-based fluorimetric method
# Type: functional, U-87MG ATCC
# test-settings: U-87 MG
Label scheme for IC50: bottom range: < 6 nM; center range: ≥ 6 nM and < 80 nM; top range: ≥ 80 nM

Query: The entry to classify is C=C(c1ccc(OC)cc1)c1cc(C(N)=O)nc2ccccc12 ; which class holds it?
Result: top range

Query: Into which bin does this compound go? C=C(c1ccc(OC)cc1)c1cc(C)nc2ccccc12
Result: center range

###

Consider the following compounds and their measured IC50 readings.
# experiment-description: Cytotoxicity against human U87 cells assessed as decrease in cell growth after 72 hrs by resazurin dye-based fluorimetric method
# Format: functional, U-87MG ATCC
# test-settings: U-87 MG
Numeric answer only, unit nM assumed.

Sample records with IC50:
C=C(c1ccc(OC)cc1)c1cc(CO)nc2ccccc12 390
COc1ccc(C(=O)c2cc(C)nc3ccccc23)cc1 25
C=C(c1ccc(OC)cc1)c1cc(C(=O)O)nc2ccccc12 75
COc1ccc(C(=CC#N)c2cc(C)nc3ccccc23)cc1 0.25
C=C(c1ccc(OC)cc1)c1cc(C(F)(F)F)nc2ccccc12 21.7
C=C(c1ccc(OC)c(F)c1)c1cc(C)nc2ccccc12 4

Query: Quick one: IC50 for C=C(c1ccc(OC)c(O)c1)c1nc(C)nc2ccccc12 ?
Result: 6.1

Query: So what's the measured IC50 for this one? C=C(c1ccc(OC)cc1)c1nc(C)nc2ccccc12
Result: 40

Query: Name the reported IC50 value associated with the compound C=C(c1ccc(OC)cc1)c1nc(C)cc2ccccc12
Result: 300

Query: // lookup IC50 for C=C(c1ccc(OC)c(O)c1)c1cc(OC)c(OC)c(OC)c1
Result: 7.8

Query: Quick one: IC50 for C=C(c1ccc(OC)cc1)c1cc(C)cc2ccccc12 ?
Result: 140

Query: # input compound: C=C(c1ccc(OC)cc1)c1nc2ccccc2nc1C ; wanted: its IC50
Result: 690

Query: Quick one: IC50 for C=C(c1ccc(OC)cc1)c1cc(C(=O)OC)nc2ccccc12 ?
Result: 2.3

Query: What does the data say about its IC50? Entry: C=C(c1ccc(OC)c(O)c1)c1cc(C)nc2ccccc12
Result: 1.5

Query: Could you tell me which IC50 is on file for C=C(c1ccc(OC)cc1)c1cc(C#N)nc2ccccc12 ?
Result: 1
